# tgt: T1, human Y2 receptor (human, UniProt P49146 1-381)
# T1 sequence (looked up): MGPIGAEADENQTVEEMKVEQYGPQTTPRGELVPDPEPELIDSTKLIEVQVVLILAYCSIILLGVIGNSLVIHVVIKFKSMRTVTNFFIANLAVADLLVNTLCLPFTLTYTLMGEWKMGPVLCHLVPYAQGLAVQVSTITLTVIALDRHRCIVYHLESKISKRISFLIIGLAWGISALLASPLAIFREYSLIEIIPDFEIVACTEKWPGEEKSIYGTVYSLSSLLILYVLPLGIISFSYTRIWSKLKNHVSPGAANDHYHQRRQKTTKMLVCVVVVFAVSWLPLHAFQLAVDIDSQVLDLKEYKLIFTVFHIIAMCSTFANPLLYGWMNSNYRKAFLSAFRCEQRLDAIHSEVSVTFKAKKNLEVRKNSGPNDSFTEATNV
# assay-summary: cell-based or functional assay
Non-standard residues stand in square brackets, D forms with d. No end group written: not given here. *: point of attachment. 2‑hydroxyethylcarbamoyl = O=C(NCCO)*; Phe(2-Me) = Cc1ccccc1C[C@H](N)C(=O)O; Morpholinocarbonyl = O=C(N1CCOCC1)*; tBuAla = CC(C)(C)C[C@H](N)C(=O)O; Cha = N[C@@H](CC1CCCCC1)C(=O)O; 4Amb = NCc1ccc(C(=O)O)cc1; Aib = CC(C)(N)C(=O)O
reported-endpoint: GBA EC50 Ratio (vs PYY(3-36)), [35S]GTPγS (ratio)
Please respond with the number in ratio and leave the unit unwritten.

[
  {
    "binder": "Morpholinocarbonyl-S[dP]RH[Cha][tBuAla]NK[Aib]TRQR[Cha]-NH2 (SMILES C[C@@H](O)[C@H](NC(=O)C(C)(C)NC(=O)[C@H](CCCCN)NC(=O)[C@H](CC(N)=O)NC(=O)[C@H](CC(C)(C)C)NC(=O)[C@H](CC1CCCCC1)NC(=O)[C@H](Cc1c[nH]cn1)NC(=O)[C@H](CCCNC(=N)N)NC(=O)[C@H]1CCCN1C(=O)[C@H](CO)NC(=O)N1CCOCC1)C(=O)N[C@@H](CCCNC(=N)N)C(=O)N[C@@H](CCC(N)=O)C(=O)N[C@@H](CCCNC(=N)N)C(=O)N[C@@H](CC1CCCCC1)C(N)=O, also called compound No. 187) [Morpholinocarbonyl-[D-Pro24, Cha27,36, Leu(Me)28, Lys30, Aib31]-PYY(23-36)]",
    "experimental-result": 0.84
  }
]

Inquiry: Which GBA EC50 Ratio (vs PYY(3-36)), [35S]GTPγS reading was recorded for the binder {2‑hydroxyethylcarbamoyl}-S[dP]RH[Cha][tBuAla]NK[Aib]TRQR[Cha]-NH2 (SMILES C[C@@H](O)[C@H](NC(=O)C(C)(C)NC(=O)[C@H](CCCCN)NC(=O)[C@H](CC(N)=O)NC(=O)[C@H](CC(C)(C)C)NC(=O)[C@H](CC1CCCCC1)NC(=O)[C@H](Cc1c[nH]cn1)NC(=O)[C@H](CCCNC(=N)N)NC(=O)[C@H]1CCCN1C(=O)[C@H](CO)NC(=O)NCCO)C(=O)N[C@@H](CCCNC(=N)N)C(=O)N[C@@H](CCC(N)=O)C(=O)N[C@@H](CCCNC(=N)N)C(=O)N[C@@H](CC1CCCCC1)C(N)=O, also called compound No. 188) [2-Hydroxyethylcarbamoyl-[D-Pro24, Cha27,36, Leu(Me)28, Lys30, Aib31]-PYY(23-36)] ?
Reply text: 0.71

Inquiry: Try the binder Ac-PRAYINLITRQRY-NH2 (also called compound No. 38) [Ac-[Pro24, Ala26, Ile28,31]-PYY(24-36)]
Reply text: 26

Inquiry: Try the binder Ac-S[dP]RH[Cha][Cha]NL[Aib]TRQR[Phe(2-Me)]-NH2 (SMILES CC(=O)N[C@@H](CO)C(=O)N1CCC[C@@H]1C(=O)N[C@@H](CCCNC(=N)N)C(=O)N[C@@H](Cc1c[nH]cn1)C(=O)N[C@@H](CC1CCCCC1)C(=O)N[C@@H](CC1CCCCC1)C(=O)N[C@@H](CC(N)=O)C(=O)N[C@@H](CC(C)C)C(=O)NC(C)(C)C(=O)N[C@H](C(=O)N[C@@H](CCCNC(=N)N)C(=O)N[C@@H](CCC(N)=O)C(=O)N[C@@H](CCCNC(=N)N)C(=O)N[C@@H](Cc1ccccc1C)C(N)=O)[C@@H](C)O, also called compound No. 196) [Ac-[D-Pro24, Cha27,28, Aib31, Phe(2Me)36]-PYY(23-36)]
Reply text: 1.6

Inquiry: Same again, this time with [4Amb]RAYWNLITRQRY-NH2 (N-terminus assumed; SMILES CC[C@H](C)[C@H](NC(=O)[C@H](CC(C)C)NC(=O)[C@H](CC(N)=O)NC(=O)[C@H](Cc1c[nH]c2ccccc12)NC(=O)[C@H](Cc1ccc(O)cc1)NC(=O)[C@H](C)NC(=O)[C@H](CCCNC(=N)N)NC(=O)c1ccc(CN)cc1)C(=O)N[C@H](C(=O)N[C@@H](CCCNC(=N)N)C(=O)N[C@@H](CCC(N)=O)C(=O)N[C@@H](CCCNC(=N)N)C(=O)N[C@@H](Cc1ccc(O)cc1)C(N)=O)[C@@H](C)O, also called compound No. 23) [4-Aminomethylbenzoyl-[Ala26, Trp28, Ile31]-PYY(25-36)]
Reply text: 5
